Data export: EC50 values recorded with Kappa-type opioid receptor (Homo sapiens, UniProt P41145).
Sequence (P41145 whole entry): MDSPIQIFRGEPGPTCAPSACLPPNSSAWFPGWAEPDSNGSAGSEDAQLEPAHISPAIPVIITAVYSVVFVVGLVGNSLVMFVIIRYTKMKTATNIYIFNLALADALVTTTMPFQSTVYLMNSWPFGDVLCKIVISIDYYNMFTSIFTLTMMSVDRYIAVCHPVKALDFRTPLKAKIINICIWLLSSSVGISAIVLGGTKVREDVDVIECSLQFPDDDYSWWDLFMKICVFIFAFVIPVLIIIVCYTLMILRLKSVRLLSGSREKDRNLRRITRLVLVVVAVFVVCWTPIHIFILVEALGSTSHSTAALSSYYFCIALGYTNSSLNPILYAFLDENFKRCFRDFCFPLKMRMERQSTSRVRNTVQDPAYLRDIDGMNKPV
Bridge positions count the residues as written; N and C are the ends. Square brackets hold non-standard residues; d marks the D form. Peptide text beside a SMILES is read from it. NMeF = CN[C@@H](Cc1ccccc1)C(=O)O; dOrn = NCCC[C@@H](N)C(=O)O; dDap = NC[C@@H](N)C(=O)O

{"COMPOUND": "CN1C(=O)CNC(=O)[C@H](NC(=O)[C@@H](N)Cc2ccc(O)cc2)CNC(=O)C[C@@H](C(=O)N2CCC[C@H]2C(=O)N[C@@H](CCC(N)=O)C(=O)N[C@@H](CCCNC(=N)N)C(=O)N[C@@H](Cc2ccccc2)C(N)=O)NC(=O)[C@@H]1Cc1ccccc1 (H-Y[dDap]G[NMeF]DPQRF-NH2; lactam 2-5)", "EC50, nM": 136}
{"COMPOUND": "CN1C(=O)CNC(=O)[C@@H](NC(=O)[C@@H](N)Cc2ccc(O)cc2)CCCCNC(=O)C[C@@H](C(=O)N2CCC[C@H]2C(=O)N[C@@H](CCC(N)=O)C(=O)N[C@@H](CCCNC(=N)N)C(=O)N[C@@H](Cc2ccccc2)C(N)=O)NC(=O)[C@@H]1Cc1ccccc1 (H-YKG[NMeF]DPQRF-NH2; lactam 2-5)", "EC50, nM": 320}
{"COMPOUND": "CN1C(=O)CNC(=O)[C@H](NC(=O)[C@@H](N)Cc2ccc(O)cc2)CCCNC(=O)C[C@@H](C(=O)N2CCC[C@H]2C(=O)N[C@@H](CCC(N)=O)C(=O)N[C@@H](CCCNC(=N)N)C(=O)N[C@@H](Cc2ccccc2)C(N)=O)NC(=O)[C@@H]1Cc1ccccc1 (H-Y[dOrn]G[NMeF]DPQRF-NH2; lactam 2-5)", "EC50, nM": 139}

====

METHOD: Half life in Kunming mouse at 868.1 nmol/kg, iv measured up to 120 mins by LC-MS/MS analysis
Format: ADME, organism-based
CONDITION: in vivo
Bridge positions count the residues as written; N and C are the ends. Square brackets hold non-standard residues; d marks the D form. Peptide text beside a SMILES is read from it. NMeF = CN[C@@H](Cc1ccccc1)C(=O)O

{"MOLECULE": "CN1C(=O)CNC(=O)[C@H](NC(=O)[C@@H](N)Cc2ccc(O)cc2)CCCCNC(=O)C[C@@H](C(=O)N2CCC[C@H]2C(=O)N[C@@H](CCC(N)=O)C(=O)N[C@@H](CCCNC(=N)N)C(=O)N[C@@H](Cc2ccccc2)C(N)=O)NC(=O)[C@@H]1Cc1ccccc1 (H-Y[dK]G[NMeF]DPQRF-NH2; lactam 2-5)", "UNIT_TEXT": "min", "half-life": 28.1}

====

TESTED_TARGET: Neuropeptide FF receptor 2 (Homo sapiens, UniProt Q9Y5X5)
Sequence (Q9Y5X5 whole entry): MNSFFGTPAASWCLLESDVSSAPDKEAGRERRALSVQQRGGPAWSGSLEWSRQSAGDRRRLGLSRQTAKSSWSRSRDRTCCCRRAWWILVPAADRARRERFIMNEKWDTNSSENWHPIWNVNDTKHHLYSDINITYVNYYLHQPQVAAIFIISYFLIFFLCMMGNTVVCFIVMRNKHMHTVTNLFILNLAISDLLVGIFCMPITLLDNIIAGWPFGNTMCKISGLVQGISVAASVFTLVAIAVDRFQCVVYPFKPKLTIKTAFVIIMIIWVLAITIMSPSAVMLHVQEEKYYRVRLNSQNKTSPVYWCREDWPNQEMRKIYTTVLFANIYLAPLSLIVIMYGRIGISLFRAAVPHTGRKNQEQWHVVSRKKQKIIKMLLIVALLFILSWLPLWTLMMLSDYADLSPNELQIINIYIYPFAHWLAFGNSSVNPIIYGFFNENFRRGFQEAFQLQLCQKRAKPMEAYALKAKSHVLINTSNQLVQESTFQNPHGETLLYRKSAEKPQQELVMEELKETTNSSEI
METHOD: Agonist activity at NPFF2R (unknown origin) expressed in HEK293-A cells assessed as inhibition of forskolin-induced cAMP accumulation by measuring maximal efficacy preincubated for 30 mins in presence of 3-isobutyl-1-methylxanthine followed by forskolin and compound addition by competitive PKA binding assay relative to control
Assay type: functional, cell-based
CONDITION: filed as agonist
Bridge positions count the residues as written; N and C are the ends. Square brackets hold non-standard residues; d marks the D form. Peptide text beside a SMILES is read from it. NMeF = CN[C@@H](Cc1ccccc1)C(=O)O

{"COMPOUND": "CN1C(=O)CNC(=O)[C@@H](NC(=O)[C@@H](N)Cc2ccc(O)cc2)CCCCNC(=O)C[C@H](C(=O)N2CCC[C@H]2C(=O)N[C@@H](CCC(N)=O)C(=O)N[C@@H](CCCNC(=N)N)C(=O)N[C@@H](Cc2ccccc2)C(N)=O)NC(=O)[C@@H]1Cc1ccccc1 (H-YKG[NMeF][dD]PQRF-NH2; lactam 2-5)", "TESTED_TARGET": "Neuropeptide FF receptor 2 (Homo sapiens, UniProt Q9Y5X5)", "UNIT_TEXT": "%", "Emax": 62.4}
{"COMPOUND": "CN1C(=O)CNC(=O)[C@H](NC(=O)[C@@H](N)Cc2ccc(O)cc2)CCCCNC(=O)C[C@@H](C(=O)N2CCC[C@H]2C(=O)N[C@@H](CCC(N)=O)C(=O)N[C@@H](CCCNC(=N)N)C(=O)N[C@@H](Cc2ccccc2)C(N)=O)NC(=O)[C@@H]1Cc1ccccc1 (H-Y[dK]G[NMeF]DPQRF-NH2; lactam 2-5)", "TESTED_TARGET": "Neuropeptide FF receptor 2 (Homo sapiens, UniProt Q9Y5X5)", "UNIT_TEXT": "%", "Emax": 59.5}

====

EC50 for assorted molecules
TESTED_TARGET: Delta-type opioid receptor (Homo sapiens)
Sequence (P41143 whole entry): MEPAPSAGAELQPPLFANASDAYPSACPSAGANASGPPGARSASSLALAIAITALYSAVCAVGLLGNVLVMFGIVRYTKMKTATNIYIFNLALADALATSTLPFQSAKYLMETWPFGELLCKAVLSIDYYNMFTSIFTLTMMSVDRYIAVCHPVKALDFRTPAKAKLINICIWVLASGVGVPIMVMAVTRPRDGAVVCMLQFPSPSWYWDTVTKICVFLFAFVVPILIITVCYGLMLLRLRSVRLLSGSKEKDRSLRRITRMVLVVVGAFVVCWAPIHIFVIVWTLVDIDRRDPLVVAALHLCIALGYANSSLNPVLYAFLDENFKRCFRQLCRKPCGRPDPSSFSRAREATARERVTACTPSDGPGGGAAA
METHOD: Agonist activity at DOR (unknown origin) expressed in HEK293-A cells assessed as inhibition of forskolin-induced cAMP accumulation preincubated for 30 mins in presence of 3-isobutyl-1-methylxanthine followed by forskolin and compound addition by competitive PKA binding assay
Bridge positions count the residues as written; N and C are the ends. Square brackets hold non-standard residues; d marks the D form. Peptide text beside a SMILES is read from it. NMeF = CN[C@@H](Cc1ccccc1)C(=O)O; dOrn = NCCC[C@@H](N)C(=O)O; dDab = NCC[C@@H](N)C(=O)O; dDap = NC[C@@H](N)C(=O)O

{"MOLECULE": "CN1C(=O)CNC(=O)[C@H](NC(=O)[C@@H](N)Cc2ccc(O)cc2)CC(=O)NCCCC[C@@H](C(=O)N2CCC[C@H]2C(=O)N[C@@H](CCC(N)=O)C(=O)N[C@@H](CCCNC(=N)N)C(=O)N[C@@H](Cc2ccccc2)C(N)=O)NC(=O)[C@@H]1Cc1ccccc1 (H-Y[dD]G[NMeF]KPQRF-NH2; lactam 2-5)", "EC50 / nM": 74.2}
{"MOLECULE": "CN1C(=O)CNC(=O)[C@H](NC(=O)[C@@H](N)Cc2ccc(O)cc2)CCCCNC(=O)C[C@@H](C(=O)N2CCC[C@H]2C(=O)N[C@@H](CCC(N)=O)C(=O)N[C@@H](CCCNC(=N)N)C(=O)N[C@@H](Cc2ccccc2)C(N)=O)NC(=O)[C@@H]1Cc1ccccc1 (H-Y[dK]G[NMeF]DPQRF-NH2; lactam 2-5)", "EC50 / nM": 546}
{"MOLECULE": "CN1C(=O)CNC(=O)[C@@H](NC(=O)[C@@H](N)Cc2ccc(O)cc2)CCCCNC(=O)C[C@H](C(=O)N2CCC[C@H]2C(=O)N[C@@H](CCC(N)=O)C(=O)N[C@@H](CCCNC(=N)N)C(=O)N[C@@H](Cc2ccccc2)C(N)=O)NC(=O)[C@@H]1Cc1ccccc1 (H-YKG[NMeF][dD]PQRF-NH2; lactam 2-5)", "EC50 / nM": 923}
{"MOLECULE": "CN1C(=O)CNC(=O)[C@@H](NC(=O)[C@@H](N)Cc2ccc(O)cc2)CCCCNC(=O)C[C@@H](C(=O)N2CCC[C@H]2C(=O)N[C@@H](CCC(N)=O)C(=O)N[C@@H](CCCNC(=N)N)C(=O)N[C@@H](Cc2ccccc2)C(N)=O)NC(=O)[C@@H]1Cc1ccccc1 (H-YKG[NMeF]DPQRF-NH2; lactam 2-5)", "EC50 / nM": 28.2}
{"MOLECULE": "CN1C(=O)CNC(=O)[C@H](NC(=O)[C@@H](N)Cc2ccc(O)cc2)CCNC(=O)C[C@@H](C(=O)N2CCC[C@H]2C(=O)N[C@@H](CCC(N)=O)C(=O)N[C@@H](CCCNC(=N)N)C(=O)N[C@@H](Cc2ccccc2)C(N)=O)NC(=O)[C@@H]1Cc1ccccc1 (H-Y[dDab]G[NMeF]DPQRF-NH2; lactam 2-5)", "EC50 / nM": 95.1}
{"MOLECULE": "CN1C(=O)CNC(=O)[C@H](NC(=O)[C@@H](N)Cc2ccc(O)cc2)CCCCNC(=O)C[C@H](C(=O)N2CCC[C@H]2C(=O)N[C@@H](CCC(N)=O)C(=O)N[C@@H](CCCNC(=N)N)C(=O)N[C@@H](Cc2ccccc2)C(N)=O)NC(=O)[C@@H]1Cc1ccccc1 (H-Y[dK]G[NMeF][dD]PQRF-NH2; lactam 2-5)", "EC50 / nM": 581}
{"MOLECULE": "CN1C(=O)CNC(=O)[C@H](NC(=O)[C@@H](N)Cc2ccc(O)cc2)CNC(=O)C[C@@H](C(=O)N2CCC[C@H]2C(=O)N[C@@H](CCC(N)=O)C(=O)N[C@@H](CCCNC(=N)N)C(=O)N[C@@H](Cc2ccccc2)C(N)=O)NC(=O)[C@@H]1Cc1ccccc1 (H-Y[dDap]G[NMeF]DPQRF-NH2; lactam 2-5)", "EC50 / nM": 374}
{"MOLECULE": "CN1C(=O)CNC(=O)[C@H](NC(=O)[C@@H](N)Cc2ccc(O)cc2)CCCNC(=O)C[C@@H](C(=O)N2CCC[C@H]2C(=O)N[C@@H](CCC(N)=O)C(=O)N[C@@H](CCCNC(=N)N)C(=O)N[C@@H](Cc2ccccc2)C(N)=O)NC(=O)[C@@H]1Cc1ccccc1 (H-Y[dOrn]G[NMeF]DPQRF-NH2; lactam 2-5)", "EC50 / nM": 659}
